assay: Determination of craft point (temperature at which 1 wt % surfactant dissolves clearly, visual inspection); format: physicochemical; conditions: 1 weight % aqueous solution in pure water
property-measured: Craft point (1 wt %, ° C.) (°C)

> print(dat)
                                   compound           property.measured  value.qualifier  quantitative.result
1  CCCCCCCCCCCCCCCCCC(=O)OCC(O)C(O)C(O)C(O)C[N+](C)(C)C.[I-] (stereo not shown) [Monostearate derivative]  Craft point (1 wt %, ° C.)                =                 40.5
2  CCCCCCCCCCCCCC(=O)OCC(O)C(O)C(O)C(O)C[N+](C)(C)C.[I-] (stereo not shown) [Monomyristate derivative]  Craft point (1 wt %, ° C.)                <                    0
3  CCCCCCCCCCCC(=O)OCC(O)C(O)C(O)C(O)C[N+](C)(C)C.[Cl-] (stereo not shown) [Monolaurate derivative]  Craft point (1 wt %, ° C.)                <                    0
4  CCCCCCCCCCCCCCCC(=O)OCC(O)C(O)C(O)C(O)C[N+](C)(C)C.[Cl-] (stereo not shown) [Monopalmitate derivative]  Craft point (1 wt %, ° C.)                =                 33.5
